Below are IC50 measurements against JNK2 (Homo sapiens (Human), UniProt P45984) drawn from the literature.

Requested read-out: IC50. Entry: "O=C(Nc1ccncc1)Nc1cccc(C(=O)c2c[nH]c3ncc(-c4cccnc4)cc23)c1"
≤ 10000 nM

Consider next the compound "CS(=O)(=O)Nc1ccc(F)c(C(=O)c2c[nH]c3ncc(-c4cccc(S(C)(=O)=O)c4)cc23)c1" in the same way.
≤ 10000 nM

Consider next the compound "CS(=O)(=O)Nc1ccc(F)c(C(=O)c2c[nH]c3ncc(-c4cccc(C(N)=O)c4)cc23)c1" in the same way.
≤ 10000 nM

Consider next the compound "CC[C@@H](C)[C@@H](N)C(=O)OC1CCN(C(=O)[C@H]2CC[C@H](Nc3nccc(-n4ccc5c(OCCCS(C)(=O)=O)cccc54)n3)CC2)CC1" in the same way.
115 nM

Consider next the compound "O=C(Cc1cccc2cnccc12)Nc1ccsc1-c1ncco1" in the same way.
100 to 10000 nM

Consider next the compound "O=C(Cn1c(=O)ccc2cc(Br)ccc21)Nc1scc(Br)c1-c1nc[nH]n1" in the same way.
< 100 nM

Consider next the compound "CCNc1nccc(-c2c(-c3ccc(F)cc3)nc3n2[C@H](COc2ccc4cccc([N+](=O)[O-])c4n2)CC3)n1" in the same way.
38 nM

Consider next the compound "O=C(Nc1cccc(F)c1)Nc1cccc(C(=O)c2c[nH]c3ncc(-c4cccnc4)cc23)c1" in the same way.
≤ 10000 nM

Consider next the compound "COc1nc(-c2sccc2NC(=O)Cc2cccc3cnccc23)cs1" in the same way.
10000 to 50000 nM

Consider next the compound "Cc1csc(NC(=O)Cc2cccc3nccnc23)c1-c1ncn[nH]1" in the same way.
100 to 10000 nM

Consider next the compound "O=C(Nc1cccc(C(=O)c2c[nH]c3ncccc23)c1)Nc1ccon1" in the same way.
≤ 10000 nM

Consider next the compound "N#Cc1csc(NC(=O)Cn2c(=O)ccc3cc(C(F)(F)F)ccc32)c1-c1cncs1" in the same way.
100 to 10000 nM

Consider next the compound "O=C(Cc1cccc2cnccc12)Nc1scnc1-c1ncn[nH]1" in the same way.
100 to 10000 nM

Consider next the compound "CCCCNC(=O)Nc1cccc(Cc2c[nH]c3ncc(-c4cccnc4)cc23)c1" in the same way.
≤ 10000 nM

Consider next the compound "CS(=O)(=O)N1CCC(Nc2nccc(-c3c(-c4ccc(F)cc4)nc4occn34)n2)CC1" in the same way.
23.3 nM

Consider next the compound CS(=O)(=O)C1CCN(c2cccc3c2ccn3-c2ccnc(N[C@H]3CC[C@H](C(=O)N4CCN5CCCCC5C4)CC3)n2)CC1 (some centres unmarked) in the same way.
15.6 nM

Consider next the compound "c1csc(-c2cnc3[nH]cc(-c4ccoc4)c3c2)c1" in the same way.
< 500 nM

----------
Below are pIC50 measurements against UniProt:P45984 drawn from the literature.
pIC50: −log10 of the molar value.

Requested read-out: pIC50. Entry: Nc1cc(=O)n([C@@H]2CC[C@@H](O)C2)c2nc(NC3CCCCC3)ncc12 (racemic)
7.59

Consider next the compound "O=C(Cn1c(=O)ccn2nccc12)Nc1scc(Br)c1-c1ncn[nH]1" in the same way.
> 7.00

Consider next the compound "O=C(Cc1cccc2ncccc12)Nc1scc(Cl)c1-c1ncn[nH]1" in the same way.
> 7.00

Consider next the compound "Cc1cc2cnc(N[C@H]3CC[C@H](O)CC3)nc2n(CCCO)c1=O" in the same way.
6.39

Consider next the compound "O=C(CN1C(=O)CCc2ccccc21)Nc1scc(Br)c1-c1ncn[nH]1" in the same way.
> 7.00

Consider next the compound "CCNc1nccc(-c2c(-c3ccc(F)cc3)nc3n2[C@H](Cn2cccc2)CC3)n1" in the same way.
7.89

Consider next the compound "N#Cc1csc(NC(=O)Cc2cccc3ncccc23)c1-c1cnccn1" in the same way.
5.00 to 7.00

Consider next the compound "COc1cccc(Cc2c[nH]c3ncc(-c4cccnc4)cc23)c1F" in the same way.
≥ 5.00

Consider next the compound "Cc1cc2cnc(NC3CCCCC3)nc2n(CCCO)c1=O" in the same way.
6.15

Consider next the compound "O=C(Cc1cccc2cnccc12)Nc1scnc1-c1cnccn1" in the same way.
5.00 to 7.00

Consider next the compound "Cc1cn2c(CC(=O)Nc3scc(Br)c3-c3ncn[nH]3)csc2n1" in the same way.
5.00 to 7.00

Consider next the compound "CCCCCNC(=O)n1ccc2c(C(=O)c3c[nH]c4ncc(-c5cccnc5)cc34)cccc21" in the same way.
≥ 5.00
